# study-system: BRM (Homo sapiens, UniProt P51531)
# Construct: In-Cell Western Screen of BRM Degradation in SW1573 Cells; endogenous in cells; host or cells: SW1573
# Sequence (P51531 whole entry): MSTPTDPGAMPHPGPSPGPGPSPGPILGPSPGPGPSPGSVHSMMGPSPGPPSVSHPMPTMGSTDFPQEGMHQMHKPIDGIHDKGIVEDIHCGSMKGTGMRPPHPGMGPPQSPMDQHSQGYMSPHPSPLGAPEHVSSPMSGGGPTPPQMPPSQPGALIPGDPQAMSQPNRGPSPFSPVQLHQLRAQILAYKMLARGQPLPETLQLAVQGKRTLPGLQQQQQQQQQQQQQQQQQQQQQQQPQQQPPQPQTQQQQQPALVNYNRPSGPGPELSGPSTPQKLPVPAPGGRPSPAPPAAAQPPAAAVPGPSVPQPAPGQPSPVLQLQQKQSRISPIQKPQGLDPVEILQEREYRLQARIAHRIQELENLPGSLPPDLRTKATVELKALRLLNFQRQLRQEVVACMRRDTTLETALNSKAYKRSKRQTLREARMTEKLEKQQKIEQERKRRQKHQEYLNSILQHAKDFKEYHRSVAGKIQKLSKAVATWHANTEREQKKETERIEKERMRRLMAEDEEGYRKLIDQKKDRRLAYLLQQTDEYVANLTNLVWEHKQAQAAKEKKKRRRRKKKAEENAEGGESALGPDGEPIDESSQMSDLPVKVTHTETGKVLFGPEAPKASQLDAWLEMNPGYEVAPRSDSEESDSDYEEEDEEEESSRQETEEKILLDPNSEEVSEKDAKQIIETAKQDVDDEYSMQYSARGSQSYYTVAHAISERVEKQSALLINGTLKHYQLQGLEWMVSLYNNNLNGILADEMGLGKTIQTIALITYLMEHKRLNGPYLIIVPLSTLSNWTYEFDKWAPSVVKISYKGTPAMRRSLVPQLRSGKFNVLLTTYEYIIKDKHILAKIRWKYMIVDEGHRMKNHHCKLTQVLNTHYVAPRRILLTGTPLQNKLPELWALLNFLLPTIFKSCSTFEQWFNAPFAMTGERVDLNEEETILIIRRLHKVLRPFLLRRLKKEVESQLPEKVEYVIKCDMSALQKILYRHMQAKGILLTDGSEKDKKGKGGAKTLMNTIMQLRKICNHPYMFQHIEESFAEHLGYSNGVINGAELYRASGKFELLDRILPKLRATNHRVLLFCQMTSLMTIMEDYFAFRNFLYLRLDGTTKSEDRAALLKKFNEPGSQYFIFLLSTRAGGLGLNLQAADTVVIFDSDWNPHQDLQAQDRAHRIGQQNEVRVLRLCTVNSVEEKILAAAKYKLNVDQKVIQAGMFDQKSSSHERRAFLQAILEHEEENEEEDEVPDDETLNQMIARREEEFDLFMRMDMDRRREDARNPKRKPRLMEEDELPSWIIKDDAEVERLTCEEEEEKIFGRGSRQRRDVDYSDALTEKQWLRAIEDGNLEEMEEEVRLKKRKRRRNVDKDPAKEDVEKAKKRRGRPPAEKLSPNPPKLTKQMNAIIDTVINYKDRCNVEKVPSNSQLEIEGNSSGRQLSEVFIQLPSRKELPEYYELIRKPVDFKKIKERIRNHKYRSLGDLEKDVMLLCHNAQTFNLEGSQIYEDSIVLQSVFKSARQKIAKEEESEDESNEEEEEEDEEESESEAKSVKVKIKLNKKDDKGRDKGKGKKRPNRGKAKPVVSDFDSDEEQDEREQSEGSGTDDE
# test-protocol: In-cell Western screen of BRM degradation in SW1573 cells (Dmax and DC50)
# Format: cell-based
# condition: BRM degradation, SW1573 cells; read-out: Dmax (% degraded)
# Experimental: In-Cell Western Screen of BRM Degradation in SW1573 Cells […] To read each plate TBS-T was removed, and each plate was inverted tapped on a paper towel. The plates were read on the LI-COR Odyssey with default intensity settings of 5.0 for both channels. LI-COR images were analyzed with the in-cell Western feature of Image Studio Lite.
observation-type: Dmax

## Task State its Dmax for this compound: Cc1ncsc1-c1ccc([C@H](C)NC(=O)[C@@H]2C[C@@H](O)CN2C(=O)[C@@H](c2cc(N3CCC(CN4CCC(O[C@H]5C[C@H](Oc6cc(N7C8CCC7CN(c7cc(-c9ccccc9O)nnc7N)C8)ccn6)C5)CC4)CC3)no2)C(C)C)c(N)c1
## Result > 75%

## Task State its Dmax for this compound: Cc1ncsc1-c1ccc([C@H](C)NC(=O)[C@@H]2C[C@@H](O)CN2C(=O)[C@H](c2cc(N3CCC(F)(CN4CCC(O[C@H]5C[C@H](Oc6cc(N7C8CCC7CN(c7cc(-c9ccccc9O)nnc7N)C8)ccn6)C5)CC4)CC3)no2)C(C)C)cc1
## Result > 75%

====

# study-system: BRM (Homo sapiens)
# Construct: In-Cell Western Screen of BRM Degradation in SW1573 Cells; endogenous in cells; host or cells: SW1573
# test-protocol: In-cell Western screen of BRM degradation in SW1573 cells (Dmax and DC50)
# Assay type: cell-based
# condition: target protein degradation; read-out: BRM DC50
observation-type: DC50

## Task State its DC50 for this molecule: Cc1cnc(C)n1-c1ccc([C@H](C)NC(=O)[C@@H]2C[C@@H](O)CN2C(=O)[C@@H](c2cc(OCCN3CCC(O[C@H]4C[C@H](Oc5cc(N6C7CCC6CN(c6cc(-c8ccccc8O)nnc6N)C7)ccn5)C4)CC3)no2)C(C)C)cc1 [compound 376]
## Result 10 to 30 nM

## Task State its DC50 for this molecule: Cc1ncsc1-c1ccc([C@H](C)NC(=O)[C@@H]2C[C@@H](O)CN2C(=O)[C@@H](c2cc(OCCC3CCN(C(=O)[C@H]4C[C@H](CN5CCC([C@H](C)n6cc(-c7cc(-c8ccccc8O)nnc7N)cn6)CC5)C4)CC3)no2)C(C)C)cc1 [compound 454]
## Result > 30 nM

====

# study-system: BRM (Homo sapiens, UniProt P51531)
# Construct: In-Cell Western Screen of BRM Degradation in SW1573 Cells; endogenous in cells; host or cells: SW1573
# test-protocol: In-cell Western screen of BRM degradation in SW1573 cells (Dmax and DC50)
# Assay type: cell-based
# condition: BRM degradation, SW1573 cells; read-out: DC50
observation-type: DC50

## Task State its DC50 for this compound: Cc1ncsc1-c1ccc([C@H](C)NC(=O)[C@@H]2C[C@@H](O)CN2C(=O)C(C(C)C)n2cc(OCCN3CCN(CCOc4cc(N5C6CCC5CN(c5cc(-c7ccccc7O)nnc5N)C6)ccn4)CC3)cn2)cc1 (stereo in doubt) [compound 38]
## Result 0.01 to 0.03 µM

## Task State its DC50 for this compound: Cc1ncsc1-c1ccc(CNC(=O)[C@@H]2C[C@@H](O)CN2C(=O)[C@@H](NC(=O)COCCOCCOCCOc2cc(N3C4CCC3CN(c3cc(-c5ccccc5O)nnc3N)C4)ccn2)C(C)(C)C)cc1
## Result 0.01 to 0.03 µM

## Task State its DC50 for this compound: Cc1ncoc1-c1ccc([C@H](C)NC(=O)[C@@H]2C[C@@H](O)CN2C(=O)[C@@H](c2cc(N3CCC(CN4CCC(O[C@H]5C[C@H](Oc6cc(N7C8CCC7CN(c7cc(-c9ccccc9O)nnc7N)C8)ccn6)C5)CC4)CC3)no2)C(C)C)cc1
## Result < 0.0025 µM

## Task State its DC50 for this compound: Cc1ncsc1-c1ccc([C@@H](COCC2CCOCC2)NC(=O)[C@@H]2C[C@@H](O)CN2C(=O)[C@H](c2cc(OCCN3CCN(CCOc4cc(N5C6CCC5CN(c5cc(-c7ccccc7O)nnc5N)C6)ccn4)CC3)no2)C(C)C)cc1
## Result > 0.03 µM

## Task State its DC50 for this compound: Cc1nccn1-c1ccc([C@H](C)NC(=O)[C@@H]2C[C@@H](O)CN2C(=O)[C@H](c2cc(OCC#Cc3ccc(O[C@H]4C[C@H](Oc5cc(N6C7CCC6CN(c6cc(-c8ccccc8O)nnc6N)C7)ccn5)C4)cn3)no2)C(C)C)cc1
## Result 0.01 to 0.03 µM

## Task State its DC50 for this compound: Cc1cnn(C)c1-c1ccc([C@H](C)NC(=O)[C@@H]2C[C@@H](O)CN2C(=O)[C@H](c2cc(OCCN3CCC(O[C@H]4C[C@H](Oc5cc(N6C7CCC6CN(c6cc(-c8ccccc8O)nnc6N)C7)ccn5)C4)CC3)no2)C(C)C)cc1
## Result 0.0025 to 0.01 µM

## Task State its DC50 for this compound: Cc1ncsc1-c1ccc(CNC(=O)[C@@H]2C[C@@H](O)CN2C(=O)[C@@H](NC(=O)COCCOCCOCCOCCOCCn2cc(-c3cc(-c4ccccc4O)nnc3N)cn2)C(C)(C)C)cc1
## Result > 0.03 µM

## Task State its DC50 for this compound: Cc1ncsc1-c1ccc(CNC(=O)[C@@H]2C[C@@H](O)CN2C(=O)[C@@H](NC(=O)CN2CCN(c3ccc(CCOCCCc4cc(N5C6CCC5CN(c5cc(-c7ccccc7O)nnc5N)C6)ccn4)cn3)CC2)C(C)(C)C)cc1
## Result > 0.03 µM

## Task State its DC50 for this compound: Cc1ncsc1-c1ccc([C@@H](CCCC(=O)O)NC(=O)[C@@H]2C[C@@H](O)CN2C(=O)C(c2cc(OCCN3CCC(O[C@H]4C[C@H](Oc5cc(N6C7CCC6CN(c6cc(-c8ccccc8O)nnc6N)C7)ccn5)C4)CC3)no2)C(C)C)cc1 (stereo partly shown)
## Result > 0.03 µM

## Task State its DC50 for this compound: Cc1ncsc1-c1ccc([C@@H](NC(=O)[C@@H]2C[C@@H](O)CN2C(=O)[C@@H](c2cc(OCCN3CCC(O[C@H]4C[C@H](Oc5cc(N6C7CCC6CN(c6cc(-c8ccccc8O)nnc6N)C7)ccn5)C4)CC3)no2)C(C)C)C(F)F)cn1
## Result < 0.0025 µM

## Task State its DC50 for this compound: Cc1ncsc1-c1ccc([C@H](C)NC(=O)[C@@H]2C[C@@H](O)CN2C(=O)[C@@H](c2cc(OCCOCCOCCCCN3CC4(CCN(c5cc(-c6ccccc6O)nnc5N)CC4)C3)no2)C(C)C)cc1
## Result 0.01 to 0.03 µM

## Task State its DC50 for this compound: Cc1ncsc1-c1ccc([C@H](C)NC(=O)[C@@H]2C[C@@H](O)CN2C(=O)[C@@H](c2cc(N3CCC(CN4CCC(O[C@H]5C[C@@H](CN6CCC(C(C)n7cc(-c8cc(-c9ccccc9O)nnc8N)cn7)CC6)C5)CC4)CC3)no2)C(C)C)cc1 (stereo partly shown)
## Result < 0.0025 µM

## Task State its DC50 for this compound: Cc1ncsc1-c1ccc([C@H](C)NC(=O)[C@@H]2C[C@@H](O)CN2C(=O)[C@H](c2cc(OCCOCCOCCCCN3CC4(CCN(c5cc(-c6ccccc6O)nnc5N)CC4)C3)no2)C(C)C)cc1
## Result > 0.03 µM

## Task State its DC50 for this compound: COc1nc(-c2scnc2C)ccc1[C@H](C)NC(=O)[C@@H]1C[C@@H](O)CN1C(=O)[C@H](c1cc(OCCN2CCC(O[C@H]3C[C@H](Oc4cc(N5C6CCC5CN(c5cc(-c7ccccc7O)nnc5N)C6)ccn4)C3)CC2)no1)C(C)C
## Result > 0.03 µM

## Task State its DC50 for this compound: Cc1ncsc1-c1ccc([C@H](C)NC(=O)[C@@H]2C[C@@H](O)CN2C(=O)[C@@H](c2cc(OCCN3CCN(C[C@H]4C[C@H](Oc5cc(N6C7CCC6CN(c6cc(-c8ccccc8O)nnc6N)C7)ccn5)C4)C[C@@H]3C)no2)C(C)C)cn1
## Result < 0.0025 µM

## Task State its DC50 for this compound: Cc1ncsc1-c1ccc([C@H](C)NC(=O)[C@@H]2C[C@@H](O)CN2C(=O)[C@@H](c2cc(OCCC#Cc3ccc(OC4CC(Oc5cc(N6C7CC[C@@H]6CN(c6cc(-c8ccccc8O)nnc6N)C7)ccn5)C4)cn3)no2)C(C)C)cc1 (stereo partly shown)
## Result < 0.0025 µM
